- ASSAYED_TARGET: T1, FZD4 cysteine-rich domain (CRD), MYC-tagged and GPI-anchored on CHO cells (human, UniProt Q9ULV1 42-167, GPI anchor)
- T1 construct: also called FZD4 CRD; CHO-myc-FZDGPI; not shown: MYC tag and GPI anchor signal
- T1 sequence: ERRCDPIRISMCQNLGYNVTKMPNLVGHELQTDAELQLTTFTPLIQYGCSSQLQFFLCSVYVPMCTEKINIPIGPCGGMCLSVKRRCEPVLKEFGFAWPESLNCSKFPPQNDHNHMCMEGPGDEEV
- EXPERIMENT_DESCRIPTION: immunofluorescence, CHO-CRD cells
ASSAY_METRIC: binding result

- BINDER: "Fab-2916 (Fab, V domains shown, Fab) VH: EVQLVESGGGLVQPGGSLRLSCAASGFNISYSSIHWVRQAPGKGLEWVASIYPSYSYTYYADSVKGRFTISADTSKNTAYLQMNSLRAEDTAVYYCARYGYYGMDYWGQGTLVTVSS VL: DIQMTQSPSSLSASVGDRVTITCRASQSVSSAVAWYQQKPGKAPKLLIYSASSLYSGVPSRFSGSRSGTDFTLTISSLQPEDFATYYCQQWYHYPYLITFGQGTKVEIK"
  MEASURED: "no binding"
- BINDER: "Fab-2901 (Fab, V domains shown, Fab; also called Fv-2901) VH: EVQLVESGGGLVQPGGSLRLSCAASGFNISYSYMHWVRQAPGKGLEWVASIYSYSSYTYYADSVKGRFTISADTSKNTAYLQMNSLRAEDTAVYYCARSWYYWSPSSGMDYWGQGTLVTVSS VL: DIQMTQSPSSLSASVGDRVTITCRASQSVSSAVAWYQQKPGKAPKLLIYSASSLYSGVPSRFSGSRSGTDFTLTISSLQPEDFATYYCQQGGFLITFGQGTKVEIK"
  MEASURED: "no binding"
- BINDER: "Fab-2931 (Fab, V domains shown, Fab; also called Fv-2931) VH: EVQLVESGGGLVQPGGSLRLSCAASGFNLSYSSMHWVRQAPGKGLEWVAYISPYSGSTYYADSVKGRFTISADTSKNTAYLQMNSLRAEDTAVYYCARGSYWYVGGGWWVSGHGGMDYWGQGTLVTVSS VL: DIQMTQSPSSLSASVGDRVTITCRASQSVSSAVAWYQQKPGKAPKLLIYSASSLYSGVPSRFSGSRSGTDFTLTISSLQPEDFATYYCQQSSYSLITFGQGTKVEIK"
  MEASURED: "no binding"
